Hey, just so you know, these numbers are from patent US20220062240A1.

# System: pancreatic cancer (8 cell lines)
# test method notes: CellTiter-Glo Viability Assay, pancreatic cancer
# Format: cell-based
# particulars: Homo sapiens, Capan-2; Capan2 cell line; inhibition of cancer cell proliferation; read-out: Pancreatic cancer, EC50 Capan2
The following compounds are listed with their measured EC50 values.

# compound, modifier sign, EC50, nM
rows = [
    ("CN1CCC2(CC1)CN(c1cc(C(=O)Nc3cc4cc(-c5cnn(C)c5)ccc4cn3)ccn1)C2 [Compound 71]", "=", 344),
    ("O=C(Nc1ccc(OCCN2CCCC2)cc1)c1n[nH]cc1/C=C/c1cccnc1 [Compound 92]", ">", 10000),
    ("CN(C)CCOc1cc(C(=O)Nc2cc3cc(-c4cnn(C)c4)ccc3cn2)ccn1 [Compound 73]", "=", 555),
]

###

The following compounds are listed with their measured pEC50 values.
# Test system: liver cancer (3 cell lines)
# test method notes: CellTiter-Glo Viability Assay, liver cancer
# Assay type: cell-based
# particulars: Homo sapiens, SNU-398; SNU398 cell line; inhibition of cancer cell proliferation; read-out: Liver cancer, EC50 SNU398
pEC50: −log10 of the molar value.

# smi, target entity, pEC50
rows = [
    ("CS(=O)(=O)NCc1cc(F)cc(-c2nccc3[nH]c(-c4n[nH]c5ccc(-c6cncc(NC(=O)C7CCC7)c6)cc45)cc23)c1", "liver cancer (3 cell lines)", 7.10),
    ("Cc1n[nH]c2cc(F)c(-c3cncc(CN4CCNCC4)c3)cc12", "liver cancer (3 cell lines)", 5.86),
    ("CN(C)Cc1cncc(-c2cnc3[nH]nc(-c4nc5c(-c6cc(F)cc(N7CCOCC7)c6)cncc5[nH]4)c3c2)c1", "liver cancer (3 cell lines)", 6.76),
    ("Cc1cc2ncc(-c3ccc4cnc(NC(=O)c5ccnc(N6CCN(C)CC6)c5)cc4c3)cc2[nH]1", "liver cancer (3 cell lines)", 6.75),
]

###

# System: colorectal cancer (6 cell lines)
# test method notes: CellTiter-Glo Viability Assay, colorectal cancer
# Type: cell-based
# particulars: Homo sapiens, DLD-1, read-out: Colorectal cancer, EC50 (μM) DLD-1
The following compounds are listed with their measured EC50 values.

# compound, EC50, µM
data = [
    ("CN1CCN(c2cc(C(=O)Nc3cc4cc(-c5cnn(C)c5)ccc4cn3)ccn2)CC1 [Compound 12]", 0.183),
    ("CN1CCC(N(C)c2cc(C(=O)Nc3cc4cc(-c5cnn(C)c5)ccc4cn3)ccn2)CC1 [Compound 72]", 0.157),
    ("CN1CCN(C(=O)C(C)(C)c2ccc(C(=O)Nc3cn4cc(-c5ccncc5)ccc4n3)cc2)CC1 [Compound 27]", 1.65),
]

###

The following compounds are listed with their measured EC50 values.
# Test system: liver cancer (3 cell lines)
# test method notes: CellTiter-Glo Viability Assay, liver cancer
# Assay type: cell-based
# particulars: Homo sapiens; HEPG2 cell line; inhibition of cancer cell proliferation; read-out: Liver cancer, EC50 HEPG2
recorded metric: EC50

# smi, recorded metric, observed measurement
data = [
    ("[2H]c1c([2H])c([2H])c(/C=C/C(=O)Nc2cc3cc(-c4cncn4C)ccc3cn2)c([2H])c1[2H]", "EC50", "470 nM"),
    ("CN1CCN(c2cc(C(=O)Nc3cc4cc(-c5cn(C)nn5)ccc4cn3)ccn2)CC1", "EC50", "431 nM"),
    ("CN1CCC(C(=O)Nc2c[nH]nc2-c2nc3c(-c4ccc(F)s4)cccc3[nH]2)CC1", "EC50", "164 nM"),
    ("CN1CCCn2cc(nn2)-c2nccc3[nH]c(nc23)-c2n[nH]c3ccc(cc23)-c2cncc(c2)C1", "EC50", "> 10000 nM"),
    ("CN(C)C1CN(c2cc(C(=O)Nc3cc4cc(-c5cnn(C)c5)ccc4cn3)ccn2)C1", "EC50", "750 nM"),
    ("CN(C)Cc1cncc(-c2cnc3[nH]nc(-c4nc5c(-c6cc(F)cc(N7CCOCC7)c6)cncc5[nH]4)c3c2)c1", "EC50", "3590 nM"),
    ("Cc1n[nH]c2ccc(-c3cncc(N[C@H]4CC[C@@H](N)CC4)n3)cc12", "EC50", "402 nM"),
]

###

The following compounds are listed with their measured EC50 values.
# Tested on: haematopoietic & lymphoid tumors (13 cell lines)
# test method notes: CellTiter-Glo Viability Assay, haematopoietic & lymphoid tumors
# Type: cell-based
# particulars: Homo sapiens; JeKo-1 cell line; inhibition of cancer cell proliferation; read-out: Haematopoietic & Lymphoid tumors, EC50 (μM) JeKo-1

# smi, EC50 (µM)
records = [
    ("CN1CCN(c2cc(C(=O)Nc3cc4cc(-c5cnn(C)c5N)ccc4cn3)ccn2)CC1", 0.046),
    ("CN1CCN(c2cc(C(=O)Nc3cc4cc(-c5nnc(N(C)C)s5)ccc4cn3)ccn2)CC1", 0.319),
    ("CN1CCC(C(=O)Nc2c[nH]nc2-c2nc3c(-c4ccc(F)s4)cccc3[nH]2)CC1", 0.04),
    ("CS(=O)(=O)NCc1cc(F)cc(-c2nccc3[nH]c(-c4n[nH]c5ccc(-c6cncc(NC(=O)C7CCC7)c6)cc45)cc23)c1", 0.088),
    ("c1cc2cc(c1)-c1cncc3[nH]c(nc13)-c1n[nH]c3ccc(cc13)-c1cncc(c1)CNC2", 0.017),
    ("O=C1COc2cccc(c2)-c2cncc3[nH]c(nc23)-c2n[nH]c3ccc(cc23)-c2cncc(c2)N1", 0.39),
]

###

# test method notes: Plasma pharmacokinetics after single IV bolus or oral dose
# Assay type: in vivo, mice
# particulars: mouse, plasma; IV, 2 mg/kg, male Balb/c mice
# Protocol: Following a single Intravenous (IV) Bolus or Oral (PO) Dose to Male Balb/c Mice, approximately 0.1 mL whole blood was collected via the cheek vein (submandibular) according to an alternate bleeding schedule (n=3/time point/route) at 0.083 (IV), 0.25, 0.5, 1, 2, 4, 6, 8, and 24 hours post-dose into tubes containing K2EDTA anticoagulant and plasma was harvested by centrifugation. Prior to in vivo efficacy studies, pharmacokinetic studies were performed with Compound 12.
recorded metric: half-life (h)

# compound, observed measurement
records = [
    ("CN1CCN(c2cc(C(=O)Nc3cc4cc(-c5cnn(C)c5)ccc4cn3)ccn2)CC1 [Compound 12]", 3.15),
]

###

# test method notes: Plasma pharmacokinetics after single IV bolus or oral dose
# Assay type: in vivo, mice
# particulars: mouse, plasma; PO, 10 mg/kg, male Balb/c mice
recorded metric: AUC(0-inf) (ng·h/mL)

# compound, observed measurement
measured = [
    ("CN1CCN(c2cc(C(=O)Nc3cc4cc(-c5cnn(C)c5)ccc4cn3)ccn2)CC1 [Compound 12]", 10300),
]

###

# test method notes: Plasma pharmacokinetics after single IV bolus or oral dose
# Assay type: in vivo, mice
# particulars: mouse, plasma; PO, 10 mg/kg, male Balb/c mice
recorded metric: Cmax

# molecule, recorded metric, observed measurement
measured = [
    ("CN1CCN(c2cc(C(=O)Nc3cc4cc(-c5cnn(C)c5)ccc4cn3)ccn2)CC1 [Compound 12]", "Cmax", "1550 ng/mL"),
]

###

# Test system: MCF7
# test method notes: CellTiter-Glo Viability Assay, breast cancer
# Assay type: cell-based
# particulars: Homo sapiens, 96 h; MCF7, breast cancer, four days; read-out: EC50
EC50 less than 2000 nM is Yes; EC50 greater than or equal to 2000 nM is No.

# smi, label class
measured = [
    ("Cc1n[nH]c2cc(F)c(-c3cncc(CN4CCNCC4)c3)cc12", "No"),
    ("Cn1ncc(-c2ccc3cnc(NC(=O)C4CC5(C4)CN(CCF)C5)cc3c2)c1CN1CCCCC1", "Yes"),
    ("CN1CCN(c2cc(C(=O)Nc3cc4cc(-c5cnn(C)c5)c(F)cc4cn3)ccn2)CC1", "No"),
    ("c1cc2cc(c1)-c1cncc3[nH]c(nc13)-c1n[nH]c3ccc(cc13)-c1cncc(c1)CNC2", "Yes"),
    ("CN1CCC2(CC1)CN(c1cc(C(=O)Nc3cc4cc(-c5cnn(C)c5)ccc4cn3)ccn1)C2", "Yes"),
    ("CN1CCN(c2ccc(NC(=O)c3n[nH]c4ccc(-c5cncc(NC(=O)C6CC6)c5)cc34)cn2)CC1", "Yes"),
    ("CN1CCCCN(C)c2nccc3[nH]c(nc23)-c2n[nH]c3ccc(cc23)-c2cncc(c2)C1", "Yes"),
    ("Cc1n[nH]c2ccc(-c3cncc(N[C@H]4CC[C@@H](N)CC4)n3)cc12", "Yes"),
]

###

# System: haematopoietic & lymphoid tumors (13 cell lines)
# test method notes: CellTiter-Glo Viability Assay, haematopoietic & lymphoid tumors
# Type: cell-based
# particulars: Homo sapiens, DND41; DND-41 cell line; inhibition of cancer cell proliferation; read-out: Haematopoietic & Lymphoid tumors, EC50 (μM) DND-41
The following compounds are listed with their measured EC50 values.

# smi, EC50 [µM]
data = [
    ("O=C1CCc2cccc(c2)-c2cncc(c2)NC(=O)c2n[nH]c3ccc(cc23)-c2cncc(c2)CN1", 7.8),
    ("CN1CCN(c2cc(C(=O)Nc3cc4cc(-c5cn(C)nn5)ccc4cn3)ccn2)CC1", 0.216),
    ("O=C(Nc1c[nH]nc1-c1nc2c(-c3cccc(F)c3)cncc2[nH]1)c1cccnc1", 0.014),
    ("Cc1n[nH]c2cc(F)c(-c3cncc(CN4CCNCC4)c3)cc12", 7.09),
    ("CS(=O)(=O)NCc1cc(F)cc(-c2nccc3[nH]c(-c4n[nH]c5ccc(-c6cncc(NC(=O)C7CCC7)c6)cc45)cc23)c1", 0.176),
    ("CN1CCN(c2cc(Nc3ncc4c(-c5ccc6ncccc6c5)c[nH]c4n3)ccn2)CC1", 0.221),
    ("CN1CC=C(c2cc(C(=O)Nc3cc4cc(-c5cncc(NC(C)(C)C)n5)cnc4cn3)ccn2)CC1", 1.37),
    ("CC(C)Nc1cncc(-c2ccc3cnc(NC(=O)c4cn(C5CCN(CCF)CC5)nn4)cc3c2)n1", 0.207),
    ("[2H]c1c([2H])c([2H])c(/C=C/C(=O)Nc2cc3cc(-c4cncn4C)ccc3cn2)c([2H])c1[2H]", 0.213),
    ("CN1CCCCN(C)c2nccc3[nH]c(nc23)-c2n[nH]c3ccc(cc23)-c2cncc(c2)C1", 0.106),
    ("Cn1ncc(-c2ccc3cnc(NC(=O)c4cccc(CN5CCCC5)c4)cc3c2)c1CN1CCCCC1", 0.513),
    ("CN1CCC(Oc2ccc(NC(=O)c3n[nH]cc3/C=C/c3cccnc3)cn2)CC1", 4.78),
    ("Cn1cc(-c2ccc3cnc(NC(=O)c4ccc5c(c4)CNCC5)cc3c2)cn1", 0.491),
    ("Cc1n[nH]c2ccc(-c3cncc(N[C@H]4CC[C@@H](N)CC4)n3)cc12", 0.186),
    ("CN1CCC(C(=O)Nc2c[nH]nc2-c2nc3c(-c4ccc(F)s4)cccc3[nH]2)CC1", 0.106),
    ("CN1CCC(Oc2ccc(NC(=O)c3n[nH]c4cc(F)c(-c5cnn(C)c5)cc34)cc2)CC1", 0.798),
    ("CN(C)Cc1cncc(-c2cnc3[nH]nc(-c4nc5c(-c6cc(F)cc(N7CCOCC7)c6)cncc5[nH]4)c3c2)c1", 0.432),
    ("COc1ccc(NC(=O)c2n[nH]c3ccc(-c4cncc(CN5CCCCC5)c4)cc23)cn1", 0.529),
]
